# CellTox Green cytotoxicity fluorescence per entry
System: MV4-11
Test: CellTox Green cytotoxicity fluorescence relative to DMSO vehicle (fold of vehicle RFU); higher = more cell death (loss of membrane integrity), active = 2 or more
Settings: 0.01 µM; 48 h
// keep it numeric: no unit symbol after the value

CCCCCCCCCCCC1=C(O)C(=O)C=C(O)C1=O [Embelin]: 1
CN1CCN(CCCNc2ncc(Cl)c(-c3cc4c(C(=O)NC5CC5)cccc4s3)n2)CC1: 0.976
CCOC(=O)C1=C(N)Oc2ccc(Br)cc2C1C(C#N)C(=O)OCC (centres undefined): 0.991
NS(=O)(=O)C#Cc1ccccc1 [Pifithrin-m]: 1
C=CC(=O)N1CCC(Oc2cc3c(Nc4ccc(Cl)c(Cl)c4F)ncnc3cc2OC)CC1 [Poziotinib]: 0.986
CC1(C)CCC(c2ccc(Cl)cc2)=C(CN2CCN(c3ccc(C(=O)NS(=O)(=O)c4ccc(N[C@H](CCN5CCOCC5)CSc5ccccc5)c(S(=O)(=O)C(F)(F)F)c4)cc3)CC2)C1 [Navitoclax]: 1.02
Cc1nn(C)c(COc2ccc(N3CCN(S(=O)(=O)N(C)C)CC3)cc2)c1-c1cccc2c(CCCOc3cccc4ccccc34)c(C(=O)O)n(CCN3CCOCC3)c12: 0.986
CC[C@H](NC(=O)[C@H](C)NC)C(=O)N1C[C@@H](O)C[C@H]1Cc1c(-c2[nH]c3cc(F)ccc3c2C[C@@H]2C[C@H](O)CN2C(=O)[C@H](CC)NC(=O)[C@H](C)NC)[nH]c2cc(F)ccc12 [Birinapant]: 0.989

Consider now this further molecule.
Task item: Which CellTox Green cytotoxicity fluorescence reading was recorded for the molecule "COc1ccc(CCNCc2ccc(OCc3ccc(Cl)nc3)c(OC)c2)cc1OC" ?
Reply: 0.978
